target: T1, human NPR1 extracellular domain expressed with a C-terminal myc-myc-hexahistidine (hNPR1-MMH) (human, UniProt P16066 33-473); experiment: SPR, mAb captured, 37 C
T1 construct: also called hNPR.mmh; monomeric human NPR1
T1 sequence (P16066 other isoform, or with tags, fused parts or gaps): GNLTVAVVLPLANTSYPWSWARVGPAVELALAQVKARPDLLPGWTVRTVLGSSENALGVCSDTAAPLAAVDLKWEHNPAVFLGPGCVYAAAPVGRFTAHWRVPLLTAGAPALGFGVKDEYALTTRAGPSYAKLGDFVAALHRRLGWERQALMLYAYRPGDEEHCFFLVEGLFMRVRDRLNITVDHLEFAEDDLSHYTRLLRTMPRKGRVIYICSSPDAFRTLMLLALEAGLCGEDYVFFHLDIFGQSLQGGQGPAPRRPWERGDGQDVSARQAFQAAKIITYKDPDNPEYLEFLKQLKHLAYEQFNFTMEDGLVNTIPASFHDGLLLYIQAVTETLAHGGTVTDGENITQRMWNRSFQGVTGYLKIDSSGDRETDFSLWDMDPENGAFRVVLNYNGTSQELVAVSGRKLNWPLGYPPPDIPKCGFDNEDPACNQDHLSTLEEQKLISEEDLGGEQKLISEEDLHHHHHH
measured.property: kon (M⁻¹ s⁻¹)
Give the value, in units of M⁻¹ s⁻¹, as a plain number.

mAb25491 (antibody, V domains shown) VH: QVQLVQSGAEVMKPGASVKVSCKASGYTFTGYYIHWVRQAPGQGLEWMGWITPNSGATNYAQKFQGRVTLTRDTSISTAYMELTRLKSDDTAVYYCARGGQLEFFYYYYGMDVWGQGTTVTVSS VL: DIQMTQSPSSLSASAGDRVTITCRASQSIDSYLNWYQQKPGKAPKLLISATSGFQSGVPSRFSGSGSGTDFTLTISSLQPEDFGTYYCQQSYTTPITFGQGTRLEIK	35600

Please give the measured kon for this binder: mAb22033 (antibody, V domains shown) VH: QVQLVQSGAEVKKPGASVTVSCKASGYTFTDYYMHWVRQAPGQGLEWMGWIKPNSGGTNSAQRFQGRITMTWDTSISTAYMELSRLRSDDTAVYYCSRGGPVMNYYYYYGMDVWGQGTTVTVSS VL: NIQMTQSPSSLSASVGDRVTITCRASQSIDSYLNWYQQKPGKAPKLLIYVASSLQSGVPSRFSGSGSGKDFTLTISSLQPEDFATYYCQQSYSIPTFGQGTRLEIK
6030

Now the same for mAb22035 (antibody, V domains shown) VH: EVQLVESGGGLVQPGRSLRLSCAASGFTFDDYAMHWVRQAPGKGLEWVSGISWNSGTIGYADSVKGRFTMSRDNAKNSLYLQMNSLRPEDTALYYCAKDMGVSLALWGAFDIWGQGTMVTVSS VL: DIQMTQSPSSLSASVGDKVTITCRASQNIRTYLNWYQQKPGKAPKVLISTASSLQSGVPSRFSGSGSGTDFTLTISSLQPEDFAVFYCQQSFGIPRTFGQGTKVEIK
240000

Now the same for mAb25497 (antibody, V domains shown) VH: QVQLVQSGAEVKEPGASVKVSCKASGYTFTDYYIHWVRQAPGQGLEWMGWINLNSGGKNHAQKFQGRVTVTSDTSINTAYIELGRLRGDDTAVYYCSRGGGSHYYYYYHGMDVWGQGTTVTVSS VL: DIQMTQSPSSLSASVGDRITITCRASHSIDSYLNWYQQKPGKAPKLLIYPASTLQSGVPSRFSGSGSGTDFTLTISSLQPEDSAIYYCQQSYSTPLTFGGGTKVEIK
18600
